- Tested on: PPARg:RXRa 270nM:90nM, anti-RXR (NR concentration 270 nM, RXRa partner concentration 90 nM)
- Assay summary: PBM binding z-score (relative to random genomic background probes); higher = stronger binding; sequences stand for … in GC…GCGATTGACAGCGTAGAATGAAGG
Reported PBM binding z-score values follow for various sequences
Form: value (number only, do not type unit).

These solved cases illustrate the format of a correct answer.
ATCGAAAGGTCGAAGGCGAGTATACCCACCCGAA	2.5
CCTTCCGGGTCACTGACAGGTTATAGCATTTGGA	5.08
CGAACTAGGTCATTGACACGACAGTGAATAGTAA	6.21
TTACCAAGGTGAAAAGTCGTTGATGCACGCCTTG	4.56
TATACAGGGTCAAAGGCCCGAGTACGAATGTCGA	6.28

PBM binding z-score recorded for this sequence, `CGAACTAGGTCAGAACAGGACAGTGGAGGATGAT` , is 4.33

PBM binding z-score recorded for this sequence, `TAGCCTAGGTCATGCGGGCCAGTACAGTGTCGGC` , is 2.56

PBM binding z-score recorded for this sequence, `CCTACTGGGACAAAAAGGTCATTGATGCCGATAA` , is 4.19

PBM binding z-score recorded for this sequence, `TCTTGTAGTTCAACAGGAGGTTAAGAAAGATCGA` , is 1.66

PBM binding z-score recorded for this sequence, `CCGACTGGGGTAAAGGTTACCATACTCAGTACGA` , is 9.31

PBM binding z-score recorded for this sequence, `GCGACTGGGGCAAAGCAAGTTACCATAAGGTTGG` , is 1.1

PBM binding z-score recorded for this sequence, `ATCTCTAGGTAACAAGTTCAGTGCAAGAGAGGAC` , is 1.86

----------
- Tested on: PPARg DBDmut IVT, anti-PPARg (DBD mutation: PPARg1 K132A/R137A, NR concentration 270 nM)
- Assay summary: PBM binding z-score (relative to random genomic background probes); higher = stronger binding; sequences stand for … in GC…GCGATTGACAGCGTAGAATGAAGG
Think of 0.4 as a floor: if PBM binding z-score stands on it or above, it is true; beneath it, false.

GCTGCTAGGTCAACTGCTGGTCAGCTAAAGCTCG	false
CAAACTAGGTCACGAAAGGTCATAGTCGAATGAC	true
CCTAGCAGGCCAATCTGTGTCACTCAAGGCTTGA	false
CGTCAAAGTTCAAGGTATCGTAACAGAAAGCAGC	true
ATACCAAGGTGATCGAGAGGTCGTTGATACTAAC	true

Can `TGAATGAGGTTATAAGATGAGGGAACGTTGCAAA` be said to have PBM binding z-score at or above 0.4?
false

Can `CGTCCAAGGTCAATGCTCGGTCAGTGAAAGCATT` be said to have PBM binding z-score at or above 0.4?
false

Can `GGAACGAGGGCATTCGAGTTGACAGCATGGCGAT` be said to have PBM binding z-score at or above 0.4?
false

Can `AGTCAAAGTTCACTAGATAACGTAAGATTCAGCT` be said to have PBM binding z-score at or above 0.4?
true

Can `TCTAGTTGGACAAAGGTCACACACTCGAAATGCG` be said to have PBM binding z-score at or above 0.4?
true

Can `CCTCGGACGACAACAGGAGGTCAGAGCTGCCAGA` be said to have PBM binding z-score at or above 0.4?
false
